Test system: monoclonal androstenedione antibody 4G8
Test: Competitive chemiluminescent immunoassay (ADVIA Centaur), binding of A4-AE conjugates to antibody on solid phase
Design: species or system sheep; key: a “+” indicates appreciable binding of the specified A4-AE conjugate to the specified antibody; a “−” indicates no appreciable binding was observed
Settings: binding of A4-AE conjugate to 4G8 antibody, chemiluminescence; lite reagent 20 ng/mL tracer
endpoint: 4G8

Use these answered entries as a reference point.
{"compound": "Cc1cc(C(=O)NCCC[N+](C)(CCCNC(=O)COC[C@]23CCC(=O)C=C2CCC2C3CC[C@]3(C)C(=O)CCC23)CCCS(=O)(=O)[O-])cc(C)c1OC(=O)c1c2ccccc2[n+](CCCS(=O)(=O)[O-])c2ccccc12 (some centres unmarked) [compound 3, A4(19)-CME-NH-Z-ZAE]", "result value": "+"}
{"compound": "Cc1cc(C(=O)NCCC[N+](C)(CCCNC(=O)OC2CC3C4CCC(=O)C4(C)CCC3C3(C)CCC(=O)C=C23)CCCS(=O)(=O)[O-])cc(C)c1OC(=O)c1c2ccccc2[n+](CCCS(=O)(=O)[O-])c2ccccc12 (stereo not drawn) [compound 5, A4(6β)-carbamate-NH-Z-ZAE]", "result value": "−"}
{"compound": "Cc1cc(C(=O)NCCC[N+](C)(CCCNC(=O)CON=C2CCC3C4CCC5=CC(=O)CCC5(C)C4CCC23C)CCCS(=O)(=O)[O-])cc(C)c1OC(=O)c1c2ccccc2[n+](CCCS(=O)(=O)[O-])c2ccccc12 (centres unmarked) [compound 2, A4(17)-CMO-Z-ZAE]", "result value": "−"}
{"compound": "Cc1cc(C(=O)NCCC[N+](C)(CCCNC(=O)CCSC2CC3=CC(=O)CCC3(C)C3CCC4(C)C(=O)CCC4C23)CCCS(=O)(=O)[O-])cc(C)c1OC(=O)c1c2ccccc2[n+](CCCS(=O)(=O)[O-])c2ccccc12 (stereo not drawn) [compound 6, A4(7α)-CETE-NH-Z-ZAE]", "result value": "+"}

Shift focus to the following entry.
# get_value(readout='4G8', item= Cc1cc(C(=O)NCCC[N+](C)(CCCNC(=O)CCC(=O)OC2CC3C4CCC(=O)C4(C)CCC3C3(C)CCC(=O)C=C23)CCCS(=O)(=O)[O-])cc(C)c1OC(=O)c1c2ccccc2[n+](CCCS(=O)(=O)[O-])c2ccccc12 (stereo not drawn) [compound 4, A4(6β)-hemisuccinate-NH-Z-ZAE] ) +
